Tested on: Plasmodium berghei
ASSAY_OVERVIEW: Screen against P. berghei liver stage (PbLuc), transformed with Luciferase, at 2uM
Format: functional, HepG2
REPORTED_CONDITIONS: tested at 2 uM
Among all 68,000 compounds or so, about 2,700 (4%) showed an effect of 50% or more. The sample holds strong results, similar compounds and a random draw of the others, so the mix is not that of the screen.
METRIC_NAME: INHIBITION
Note to self: number, then unit, no commentary.

Field: example entries. Status: answers known.
Give Plasmodium berghei INHIBITION for `COCC(=O)N1CC[C@H]2C[C@@H](c3nnc(C4CC4)o3)O[C@@H]2C1` 6.55%

Item: Cc1cc(C)c2c(c1)NC(=O)C2CC(=O)O (stereo unspecified) Test system: Plasmodium berghei Read-out: INHIBITION Value: ? 33.22%

Write down the reported INHIBITION of Nc1ncc(-c2ccc(F)cc2)c(C2CCCNC2)n1 (stereo unspecified) , test system: Plasmodium berghei. 54.2%

Lab note: need INHIBITION for CC(=O)NCCNC(=O)CN1CCOC(Cn2cccn2)C1 (stereo unspecified) on Plasmodium berghei, anyone have it? -21.68%

Find INHIBITION (Plasmodium berghei) for the entry `CCc1nnc2n1CCN(Cc1csc(NC(C)=O)n1)C2` -5.09%

What measured INHIBITION is associated with c1ccc(Cc2noc(CN3CCOC(Cn4cccn4)C3)n2)cc1 (stereo unspecified) on Plasmodium berghei? -0.6%

Next:
Form entry - test system: Plasmodium berghei; read-out: INHIBITION; compound: Cc1cc(C)c2c(c1)C(CC(=O)O)C(=O)N2 (stereo unspecified) 52.38%

Give recorded INHIBITION with Plasmodium berghei for the following compound: `CCN(C(=O)c1cc2c([nH]c1=O)CCCC2=O)C1CCCCC1` -58.06%

Request: INHIBITION, test system Plasmodium berghei, entry `CN(C)CCN1CCN(Cc2cccs2)Cc2cccnc21` 31.96%

Enter reported INHIBITION observed with Plasmodium berghei for `CC(C)CCN(C(=O)c1cc2c([nH]c1=O)CCCC2=O)C1CC1` 0.12%

Please state recorded INHIBITION (tested on Plasmodium berghei) of `O=C1CCCc2[nH]c(=O)c(C(=O)N(CC3CCCCC3)C3CC3)cc21` 67.44%

Provide the documented INHIBITION with Plasmodium berghei as the system for `Cc1ccc(CN2C[C@@H]3COC[C@H](NS(C)(=O)=O)[C@@H]3C2)s1` 8.88%

---

Test system: Plasmodium berghei
ASSAY_OVERVIEW: Screen against P. berghei liver stage (PbLuc), transformed with Luciferase, at 2uM
Assay type: functional, HepG2
REPORTED_CONDITIONS: tested at 2 uM
The campaign covered roughly 68,000 compounds. About 2,700 (4%) showed an effect of 50% or more. This excerpt belongs to a sample that is enriched for strong results.
Parameter: INHIBITION. Scope: all listed entries.
Please give a number only; it is taken to be in %.

Which value of INHIBITION has been reported for `CN1CCN(C(=O)c2n[nH]c3c2CN(C2CCOCC2)CC3)CC1` in the records? 36.44

Given the compound COc1cccc2c1CCC2NC(=O)NCc1csc(N(C)C)n1 (stereo not given) , what is its reported INHIBITION? -57.02

What does the record list as INHIBITION for `O=c1ccc2c(n1Cc1cccnc1)CCN(Cc1ccoc1)CC2` ? 0.13

I am curious: what INHIBITION value has been reported for `CC(C)c1cc(C(=O)N[C@@H]2CC[C@@H](Oc3ccccc3)[C@@H]2O)on1` ? 19.69

Query: INHIBITION; subject: `CCS(=O)(=O)c1ccccc1N1CCC(NC2CCCC2)CC1` 27.47

Next:
Could you share which INHIBITION value was measured for c1cnn(CC2CN(c3ncnc4ccsc34)CCO2)c1 (stereo not given) ? 32.39

Param item = `CC(C)[C@H]1CN(CCCO)C[C@@H]1NC(=O)CCS(C)(=O)=O` ; retrieve measured INHIBITION. 25.9

Which INHIBITION value belongs to `CCCNC(=O)Nc1ccn(CCCOC)n1` ? -27.36

Could you share which INHIBITION value was measured for O=S(=O)(N1CCN(CC2CC2)CC1)N1CCCC1c1ccco1 (stereo not given) ? -20.95

Consider the compound `Cc1nnc([C@H]2C[C@H]3OCC[C@H]3N(S(=O)(=O)C3CC3)C2)o1` and give its measured INHIBITION. 50.32

---

System: Plasmodium berghei
ASSAY_OVERVIEW: Screen against P. berghei liver stage (PbLuc), transformed with Luciferase, at 2uM
Assay type: functional, HepG2
REPORTED_CONDITIONS: tested at 2 uM
Out of some 68,000 compounds screened, about 2,700 (4%) showed an effect of 50% or more. The list comes from a sample in which strong results are over-represented; it also holds close analogues and randomly drawn compounds.
Recorded INHIBITION for the following compounds
Entry rule: numbers only, all in %.

Please look up its INHIBITION: `CC(=O)c1ccc(Cl)c(Cl)c1OCC(=O)NC(C)C` 26.27

More entries:
Any idea what its INHIBITION is? The compound is `CC(C)NC(=O)c1nnn(-c2ccc(F)cc2)c1C1CC1` 3.89

Which INHIBITION is reported for this compound? `CS(=O)(=O)N1C[C@H]2CC[C@@H](C1)N(C(=O)CCc1n[nH]c3c1CCCC3)C2` -4.58

Request the reported INHIBITION associated with `Cn1c(N)nnc1SCc1cc(Br)ccc1Cl` 55.36

So what's the measured INHIBITION for this one? `CC(C)NC(=O)c1nnn(-c2ccccc2)c1C1CC1` 2.31

Data request, read-out INHIBITION, for `CCOc1cccc(CCNC(=O)Cc2cccc(O)c2)n1` 26.74

---

System: Plasmodium berghei
ASSAY_OVERVIEW: Screen against P. berghei liver stage (PbLuc), transformed with Luciferase, at 2uM
Format: functional, HepG2
REPORTED_CONDITIONS: tested at 2 uM
Hit rate of the full screen: of about 68,000 compounds, about 2,700 (4%) showed an effect of 50% or more. The sample as a whole holds a higher share of strong results than the screen did.
METRIC_NAME: INHIBITION (%)
State the answer as a number, implicitly in %.

Completed entries (count: 4):
Which INHIBITION is listed for O=c1ccc(-c2cccs2)nn1CN1CCOC(c2ccccc2)C1 (stereo not drawn) ? -30.87

Recorded INHIBITION of Cc1nn(-c2ccccc2)cc1C(=O)N1CCCC(n2cccn2)C1 (stereo not drawn) , please. 11.1

Look at this compound and give its reported INHIBITION. O=C(c1ccc(NC2CC2)nc1)N1CCCC(n2ccnc2)C1 (stereo not drawn) -5.3

Fill blank: measured INHIBITION of the compound Cc1cnn(C2CCCN(C(=O)c3ccc(-n4cnnn4)cc3)C2)c1 (stereo not drawn) is ____. 15.4

More entries:
Need INHIBITION of Cc1cnn(C2CCCN(C(=O)c3ccc4c(c3)CCC4)C2)c1 (stereo not drawn) , thanks. 56.02

Query: INHIBITION; subject: O=C(CO)N1CCOC2(CCCN(c3ncc(F)cn3)C2)C1 (stereo not drawn) 14.27

Data request, read-out INHIBITION, for Cc1cnn(C2CCCN(C(=O)c3ccnc(N(C)C)c3)C2)c1 (stereo not drawn) -21.91

Which INHIBITION value belongs to Cn1cc(CN2CCCC3(CCN(C(=O)c4cnccn4)C3)C2)cn1 (stereo not drawn) ? -9.96

---

Tested on: Plasmodium berghei
ASSAY_OVERVIEW: Screen against P. berghei liver stage (PbLuc), transformed with Luciferase, at 2uM
Type: functional, HepG2
REPORTED_CONDITIONS: tested at 2 uM
Among all 68,000 compounds or so, about 2,700 (4%) showed an effect of 50% or more. What follows is part of a selection rich in strong results, with near analogues and random picks from the rest.
Listed here: items and their measured INHIBITION.
I only need the number, in %, no unit after it.

Example entries and their recorded answers appear below.
Item `Fc1cccc2[nH]c(CN3CCc4cncnc4C3)nc12` has what recorded INHIBITION? 7.24

Form field: reported INHIBITION of O=C1OC2(CCNCC2)CN1CC(=O)N1CCCC1c1nccs1 (stereo not drawn) 3.62

Fill blank: measured INHIBITION of the compound `Cc1nnc(CSCc2ccc(OCC(F)(F)F)nc2)o1` is ____. 8.78

Query: INHIBITION; subject: `COCC[C@]1(O)CCN(S(=O)(=O)c2ccc(C)cc2OC)C[C@H]1C` 69.67

Please look up its INHIBITION: `O=C(Cc1ccc2c(c1)OCO2)N1CCCN(c2ccccc2)CC1` -50.86

// lookup INHIBITION for `COc1cc(Oc2ncccc2C(F)(F)F)ccc1CN1CCCC1` 66.12

Others:
Any idea what its INHIBITION is? The compound is `N#Cc1ccccc1N1CCCN(C(=O)NCc2cc[nH]n2)CC1` -13.24

Quick one: INHIBITION for CN(C)C(CNC(=O)NCc1cc[nH]n1)c1ccco1 (stereo not drawn) ? 53.61

Value lookup for INHIBITION; key = `O=C(NCC1CCN(c2ncccn2)CC1)c1cnccn1` 26.66

Quick one: INHIBITION for `COc1ccccc1CN(C)C(=O)CN1CC(n2nc(C)cc2C)C1` ? 18.15
